All figures here come from patent US11149037B2.

- system-under-test: FAAH (Mus musculus (Mouse), UniProt O08914)
- Sequence (O08914 whole entry): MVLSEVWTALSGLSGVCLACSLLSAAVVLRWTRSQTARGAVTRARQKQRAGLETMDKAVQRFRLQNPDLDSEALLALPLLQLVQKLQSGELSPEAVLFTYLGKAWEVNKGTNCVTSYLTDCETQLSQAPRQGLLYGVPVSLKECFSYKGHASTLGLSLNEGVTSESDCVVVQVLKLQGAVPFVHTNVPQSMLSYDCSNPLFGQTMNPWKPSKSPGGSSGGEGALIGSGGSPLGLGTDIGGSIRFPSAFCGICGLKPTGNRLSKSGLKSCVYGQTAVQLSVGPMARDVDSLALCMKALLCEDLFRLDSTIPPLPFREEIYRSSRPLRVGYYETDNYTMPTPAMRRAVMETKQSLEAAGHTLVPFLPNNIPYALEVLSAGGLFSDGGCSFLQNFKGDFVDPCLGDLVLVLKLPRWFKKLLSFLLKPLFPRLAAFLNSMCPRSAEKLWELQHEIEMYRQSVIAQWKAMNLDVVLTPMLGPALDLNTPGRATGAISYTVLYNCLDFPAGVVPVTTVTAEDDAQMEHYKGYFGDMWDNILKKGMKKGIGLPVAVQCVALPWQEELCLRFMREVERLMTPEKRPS
- protocol-summary: In vitro competitive activity-based protein profiling, mouse proteomes (brain membrane fraction or cell lysates)
- Format: biochemical
- details: mouse proteome, read-out: FAAH % inh. 1 μM (mouse)
Give measured inhibition at 1 µM for each item. Keep answers brief.

Checklist item: inhibition at 1 µM tested on FAAH (Mus musculus (Mouse), UniProt O08914), entry CS(=O)(=O)Nc1ccn(C(=O)N2CCC(Oc3cccc(C(F)(F)F)c3-c3nnco3)CC2)n1 , value?
0 to 25%

Checklist item: inhibition at 1 µM tested on FAAH (Mus musculus (Mouse), UniProt O08914), entry CS(=O)(=O)Nc1ccn(C(=O)N2CCC(N(Cc3ccc(C(F)(F)F)cc3N3CCCC3)C3CC3)CC2)n1 , value?
0 to 25%

Checklist item: inhibition at 1 µM tested on FAAH (Mus musculus (Mouse), UniProt O08914), entry C[C@H]1CN(C(=O)n2ccc(NS(C)(=O)=O)n2)CCN1Cc1ccc(Cl)c(N2CCC(F)CC2)c1 , value?
0 to 25%

Checklist item: inhibition at 1 µM tested on FAAH (Mus musculus (Mouse), UniProt O08914), entry CC(=O)Nc1ccn(C(=O)N2CCC(C)(N(C)Cc3cc(C(F)(F)F)cc(C4(C(=O)O)CCCC4)c3)CC2)n1 , value?
0 to 25%

Checklist item: inhibition at 1 µM tested on FAAH (Mus musculus (Mouse), UniProt O08914), entry CS(=O)(=O)Nc1ccn(C(=O)N2CCN(Cc3cccc(Oc4ccc(Cl)cc4)c3)CC2)n1 , value?
> 75%

Checklist item: inhibition at 1 µM tested on FAAH (Mus musculus (Mouse), UniProt O08914), entry CS(=O)(=O)Nc1ccn(C(=O)N2CCC(Oc3ccc(C(F)(F)F)cc3N3CCCC3)CC2)n1 , value?
0 to 25%

Checklist item: inhibition at 1 µM tested on FAAH (Mus musculus (Mouse), UniProt O08914), entry CC(=O)Nc1ccn(C(=O)N2CCN(Cc3ccc(Cl)cc3NCC(=O)O)CC2)n1 , value?
0 to 25%

Checklist item: inhibition at 1 µM tested on FAAH (Mus musculus (Mouse), UniProt O08914), entry CS(=O)(=O)Nc1ccn(C(=O)N2CCC(Oc3ccc(C(F)(F)F)c(N4CCC(F)CC4)c3)CC2)n1 , value?
0 to 25%

Checklist item: inhibition at 1 µM tested on FAAH (Mus musculus (Mouse), UniProt O08914), entry CS(=O)(=O)Nc1ccn(C(=O)N2CC3CN(Cc4cccc(OC(F)(F)F)c4)CC3C2)n1 (centres unmarked) , value?
> 75%

Checklist item: inhibition at 1 µM tested on FAAH (Mus musculus (Mouse), UniProt O08914), entry CS(=O)(=O)Nc1ccn(C(=O)N2CCC(Oc3ccc(Cl)c(C4CCCC4)c3)CC2)n1 , value?
0 to 25%

Checklist item: inhibition at 1 µM tested on FAAH (Mus musculus (Mouse), UniProt O08914), entry C[C@@H]1CN(Cc2ccc(Cl)c(N3CCC(F)CC3)c2)CCN1C(=O)n1ccc(NS(C)(=O)=O)n1 , value?
0 to 25%

----------
- system-under-test: MAGL (Mus musculus (Mouse), UniProt O35678)
- Sequence (O35678 whole entry): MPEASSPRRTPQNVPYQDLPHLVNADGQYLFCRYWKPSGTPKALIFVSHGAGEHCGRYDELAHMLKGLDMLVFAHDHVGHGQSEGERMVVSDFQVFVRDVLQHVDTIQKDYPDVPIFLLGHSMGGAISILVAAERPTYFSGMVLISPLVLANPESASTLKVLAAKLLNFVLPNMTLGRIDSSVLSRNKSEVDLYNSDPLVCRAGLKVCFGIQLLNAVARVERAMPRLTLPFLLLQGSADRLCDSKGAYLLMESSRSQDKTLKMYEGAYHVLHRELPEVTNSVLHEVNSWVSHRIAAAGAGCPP
- protocol-summary: In vitro competitive activity-based protein profiling, mouse proteomes (brain membrane fraction or cell lysates)
- Type: biochemical
- details: mouse proteome, read-out: MAGL % inh. 1 μM (mouse)
- Protocol: In Vitro Competitive Activity-Based Protein Profiling. Proteomes (mouse brain membrane fraction or cell lysates for mouse assays; human prefrontal cortex or PC3 cell membrane fractions for human assays) (50 μL, 1.0 or 2.0 mg/mL total protein concentration) were preincubated with varying concentrations of inhibitors at 37° C. […] Following gel imaging, serine hydrolase activity was determined by measuring fluorescent intensity of gel bands corresponding to MAGL and FAAH using ImageJ 1.43u software.
reported-property: inhibition at 1 µM

Returns the measured inhibition at 1 µM for the input compound. Input: CS(=O)(=O)Nc1ccn(C(=O)N2CC3CN(Cc4ccc(N5CCCC5)cc4C(F)(F)F)CC3C2)n1 (centres unmarked)
0 to 25%

Returns the measured inhibition at 1 µM for the input compound. Input: CC(=O)Nc1ccn(C(=O)N2CCC3(CCCN3Cc3cc4cc(Cl)ccc4[nH]3)CC2)n1
> 75%

Returns the measured inhibition at 1 µM for the input compound. Input: CC(=O)Nc1ccn(C(=O)N2CCN(Cc3ccc(Cl)cc3OC3(C(=O)O)CC3)CC2)n1
> 75%

Returns the measured inhibition at 1 µM for the input compound. Input: CS(=O)(=O)Nc1ccn(C(=O)N2CCN(Cc3ccc(C(F)(F)F)c(N4CC5COCC5C4)c3)CC2)n1 (centres unmarked)
> 75%

Returns the measured inhibition at 1 µM for the input compound. Input: C[C@H]1CN(C(=O)n2ccc(NS(C)(=O)=O)n2)CCN1Cc1cnc(Cl)c(N2CCC(F)CC2)c1
> 75%

Returns the measured inhibition at 1 µM for the input compound. Input: CS(=O)(=O)Nc1ccn(C(=O)N2CCC(Oc3ccc(C(F)(F)F)cc3N3C4CCC3COC4)CC2)n1
> 75%

Returns the measured inhibition at 1 µM for the input compound. Input: CC(=O)Nc1ccn(C(=O)N2CC3CN(Cc4cc(C(F)(F)F)cc(C5(C(=O)O)CCCC5)c4)CC3C2)n1 (centres unmarked)
> 75%

Returns the measured inhibition at 1 µM for the input compound. Input: CS(=O)(=O)Nc1ccn(C(=O)N2CCN(Cc3ccc(C(N)=O)c(C(F)(F)F)c3)CC2)n1
0 to 25%

Returns the measured inhibition at 1 µM for the input compound. Input: CN(c1ccc(C(F)(F)F)cc1N1CCCC1)C1CCN(C(=O)n2ccc(NS(C)(=O)=O)n2)CC1
> 75%

Returns the measured inhibition at 1 µM for the input compound. Input: CC(=O)Nc1ccn(C(=O)N2CCN(Cc3cccc(C(F)(F)F)c3C)CC2)n1
> 75%

Returns the measured inhibition at 1 µM for the input compound. Input: CC(=O)Nc1ccn(C(=O)N2CC[C@H](Oc3ccc(C(N)=O)c(C(F)(F)F)c3)[C@H](F)C2)n1
> 75%

Returns the measured inhibition at 1 µM for the input compound. Input: C[C@@H]1CN(Cc2ccc(Cl)c(N3CC4COCC4C3)c2)CCN1C(=O)n1ccc(NS(C)(=O)=O)n1 (some centres unmarked)
> 75%

Returns the measured inhibition at 1 µM for the input compound. Input: CS(=O)(=O)Nc1ccn(C(=O)N2CCN(Cc3cc4cc(Cl)ccc4s3)CC2)n1
> 75%

Returns the measured inhibition at 1 µM for the input compound. Input: CS(=O)(=O)Nc1ccn(C(=O)N2CC3CN(Cc4cccc(C(F)(F)F)c4)CC3C2)n1 (centres unmarked)
25 to 50%
